# test.target: Fuc(a1-2)Gal(b1-4)[Fuc(a1-3)]GlcNAc(b1-3)GalNAc
# assay.method.text: glycan array binding signal (z-score within array); higher = stronger binding
# condition.summary: glycan notation: IUPAC condensed, linker removed
Only a selection was taken, and the strongest signals are over-represented in it overall.
parameter.measured: glycan array binding signal (z-score)
Form field (numeric): enter value without unit.

Record excerpt, results attached:
[
  {
    "binder": "Gal 10 (Homo sapiens), Q05315 (protein) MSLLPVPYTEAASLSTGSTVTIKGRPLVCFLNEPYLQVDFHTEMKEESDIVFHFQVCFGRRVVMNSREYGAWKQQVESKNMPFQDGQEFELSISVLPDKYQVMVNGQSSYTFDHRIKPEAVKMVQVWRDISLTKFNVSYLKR",
    "recorded.number": 2.13
  },
  {
    "binder": "CAA (Caragana arborescens) (protein) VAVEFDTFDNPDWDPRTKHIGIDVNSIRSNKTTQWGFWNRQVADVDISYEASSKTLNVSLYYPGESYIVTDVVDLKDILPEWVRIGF",
    "recorded.number": -0.238
  }
]

Now take the following binder into account.
Given item MGL6A (Homo sapiens) (protein) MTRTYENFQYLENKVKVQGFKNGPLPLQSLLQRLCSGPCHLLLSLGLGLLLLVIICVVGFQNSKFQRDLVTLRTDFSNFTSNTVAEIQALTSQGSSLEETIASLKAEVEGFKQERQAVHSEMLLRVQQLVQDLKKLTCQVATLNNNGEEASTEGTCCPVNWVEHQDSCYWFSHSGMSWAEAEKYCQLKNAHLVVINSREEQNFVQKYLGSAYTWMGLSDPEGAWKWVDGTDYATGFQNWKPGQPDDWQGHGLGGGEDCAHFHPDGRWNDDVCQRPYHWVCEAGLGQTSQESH , the value recorded as its glycan array binding signal (z-score) is -0.238
